Ref: patent US20210324028A1

Record form. Attribute: pKd. Fill in for each entry.
TARGET UNDER TEST: T1, human IL-2Rβ (human, UniProt P14784 27-240, limits assumed)
T1 construct: also called hIL-2Rβ; IL-2 receptor beta
T1 sequence (looked up): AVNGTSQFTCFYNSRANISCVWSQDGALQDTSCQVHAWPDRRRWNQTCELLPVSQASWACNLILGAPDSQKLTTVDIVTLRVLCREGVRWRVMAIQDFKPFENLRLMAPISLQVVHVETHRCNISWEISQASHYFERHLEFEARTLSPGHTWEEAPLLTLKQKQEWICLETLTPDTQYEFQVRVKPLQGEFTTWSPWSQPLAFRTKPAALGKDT
PROTOCOL SUMMARY: SPR, steady state
pKd: −log10 of the molar value.

Using the record for hIL-15 V49R/I68F (ligand) NWVNVISDLKKIEDLIQSMHIDATLYTESDVHPSCKVTAMKCFLLELQRISLESGDASIHDTVENLIFLANNSLSSNGNVTESGCKECEELEEKNIKEFLQSFVHIVQMFINTGGGGSGHHHHHHHHGGGLNDIFEAQKIEWHE , state its measured pKd.
< 6.00

Using the record for hIL-15 V49R/N1K (ligand) KWVNVISDLKKIEDLIQSMHIDATLYTESDVHPSCKVTAMKCFLLELQRISLESGDASIHDTVENLIILANNSLSSNGNVTESGCKECEELEEKNIKEFLQSFVHIVQMFINTGGGGSGHHHHHHHHGGGLNDIFEAQKIEWHE , state its measured pKd.
< 6.30

Using the record for hIL-15 V49R/D30Q (ligand) NWVNVISDLKKIEDLIQSMHIDATLYTESQVHPSCKVTAMKCFLLELQRISLESGDASIHDTVENLIILANNSLSSNGNVTESGCKECEELEEKNIKEFLQSFVHIVQMFINTGGGGSGHHHHHHHHGGGLNDIFEAQKIEWHE , state its measured pKd.
6.71

Using the record for hIL-15 V49R/E64A (ligand) NWVNVISDLKKIEDLIQSMHIDATLYTESDVHPSCKVTAMKCFLLELQRISLESGDASIHDTVANLIILANNSLSSNGNVTESGCKECEELEEKNIKEFLQSFVHIVQMFINTGGGGSGHHHHHHHHGGGLNDIFEAQKIEWHE , state its measured pKd.
< 6.30
